So I've got a bunch of molecules here, and I need their Activity values.
# PROCEDURE_TEXT: Induction of mouse ovalbumin specific CD8-positive T cell activation assessed as increase in CD25 expression at 1 uM preincubated for 18 hrs with mouse BDMC cells in presence of ovalbumin followed by washout and further coincubated […] and measured after 72 hrs by flow cytometry analysis (reference value: 12.6%)
# Assay type: functional
Answers are plain numbers, in %.

Please review the following examples before continuing.
{"columns": ["INPUT_SMILES", "RESULT"],
 "data": [
  ["CCCCOc1nc(N)c2nc(O)n(Cc3ccc(C(=O)NCCOCCNC(=O)CC[C@@H](NC(=O)[C@@H](NC(=O)CNC(=O)/C=C/c4ccc(O)c(OC)c4)C(C)C)C(=O)OCC)cc3)c2n1", 54.5],
  ["CCCCOc1nc(N)c2nc(O)n(Cc3ccc(C(=O)O)cc3)c2n1", 17.6],
  ["CCOC(=O)CC[C@@H](NC(=O)[C@@H](NC(=O)CNC(=O)/C=C/c1ccc(O)c(OC)c1)C(C)C)C(=O)OCC", 13.1]
]}

Okay, next one:
Q: Would you mind telling me what Activity value was observed for CCCCOc1nc(N)c2nc(O)n(Cc3ccc(C(=O)NCCCCCC(=O)Oc4ccc(/C=C/C(=O)NCC(=O)N[C@H](C(=O)N[C@H](CCC(=O)OCC)C(=O)OCC)C(C)C)cc4OC)cc3)c2n1 ?
Result: 44.7
